Assay: Serum and tumor levels after multiple oral doses in male OCI-LY3 tumor-bearing NSG mice
Assay type: in vivo
Conditions: male, NSG, mouse, serum, po, once daily PO, dose not given (first group), Day 4, 4 h post dose; mean (SD)
ENDPOINT: concentration at 4 h (ng/mL)

1. O=C(Nc1ccnc(C(F)(F)F)c1)c1cnn(-c2cccc3c(=O)[nH]ccc23)c1C(F)(F)F [Compound A]	9850

* * *

Test: FIH study 67856633LYM1001 plasma pharmacokinetics
Assay type: in vivo, human
Conditions: human, plasma, oral, 400 mg, Cycle 1 Day 1, 200 mg capsule, cohort 2 × 200 mg food adlib; mean; read-out: AUCτ
ENDPOINT: AUC

1) O=C(Nc1ccnc(C(F)(F)F)c1)c1cnn(-c2cccc3c(=O)[nH]ccc23)c1C(F)(F)F	112 µg·h/mL
